Target chain: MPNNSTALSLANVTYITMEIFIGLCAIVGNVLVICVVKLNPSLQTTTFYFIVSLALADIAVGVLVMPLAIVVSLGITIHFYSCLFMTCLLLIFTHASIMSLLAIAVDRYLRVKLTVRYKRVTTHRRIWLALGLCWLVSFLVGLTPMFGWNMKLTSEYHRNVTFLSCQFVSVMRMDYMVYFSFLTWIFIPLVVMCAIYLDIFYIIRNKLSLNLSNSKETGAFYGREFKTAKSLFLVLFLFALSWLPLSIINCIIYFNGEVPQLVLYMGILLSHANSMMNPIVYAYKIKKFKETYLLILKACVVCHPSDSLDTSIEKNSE
Readout Name: pKi
Answers are plain numbers, as −log10 of the molar value.

Smiles Code: COc1ccc(-c2nc3n(n2)-c2cc(C)ccc2N(C(=O)Cc2ccccc2)C3)cc1
Test Value: 7.26
--
Smiles Code: C#CCOC(=O)N1Cc2nc(-c3ccc(OC)cc3)nn2-c2cc(C)ccc21
Test Value: 7.63
--
Smiles Code: CCOC(=O)N1Cc2nc(-c3ccccc3)nn2-c2cc(Cl)ccc21
Test Value: 6.78

// for each compound in input: emit pKi
1. COC(=O)N1Cc2nc(-c3ccccc3)nn2-c2cc(C)ccc21
2. CCOC(=O)N1Cc2nc(-c3ccc(OC)cc3)nn2-c2cc(C)ccc21
3. COc1ccc(-c2nc3cnc4ccc(C)cc4n3n2)cc1

-- reply
1: 7.50; 2: 7.40; 3: 7.58

----------
# Test Target: Adenosine receptor A3 (Homo sapiens)
# Sequence (whole entry): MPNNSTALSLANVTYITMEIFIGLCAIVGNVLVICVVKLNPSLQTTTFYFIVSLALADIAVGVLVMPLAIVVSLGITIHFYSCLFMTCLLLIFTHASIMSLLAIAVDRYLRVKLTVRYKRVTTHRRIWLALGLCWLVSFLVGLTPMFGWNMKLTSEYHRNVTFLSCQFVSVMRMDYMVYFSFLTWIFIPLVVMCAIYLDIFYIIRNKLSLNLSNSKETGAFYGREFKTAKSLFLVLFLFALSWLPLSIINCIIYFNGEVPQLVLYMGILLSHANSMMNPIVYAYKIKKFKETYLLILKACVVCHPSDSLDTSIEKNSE
# Experiment Notes: Displacement of [125I]AB-MECA from human adenosine A3 receptor expressed in CHO cells at 1 uM
# Format: cell-based
Assign class by inhibition: not lower than 40% means true (1); lower than 40% means false (0).

Smiles Code: CCC(=O)N1Cc2nc(-c3ccccc3)nn2-c2ccccc21
Class Assignment: true (1)

-- ask Is inhibition at least 40%? Consider `COc1ccc(-c2ncn(-c3cc(C)ccc3NC(=O)Cc3ccccc3)n2)cc1`
-- reply true (1)

-- ask Is inhibition at least 40%? Consider `CCOC(=O)Nc1ccc(C)cc1-n1cnc(-c2ccc(OC)cc2)n1`
-- reply false (0)

-- ask Is inhibition at least 40%? Consider `COc1ccc(-c2ncn(-c3cc(C)ccc3NC(=O)OCc3ccccc3)n2)cc1`
-- reply true (1)

-- ask Is inhibition at least 40%? Consider `C#CCOC(=O)Nc1ccc(C)cc1-n1cnc(-c2ccc(OC)cc2)n1`
-- reply false (0)

----------
# Test Target: Adenosine receptor A2a (Homo sapiens, UniProt P29274)
# Sequence (P29274 whole entry): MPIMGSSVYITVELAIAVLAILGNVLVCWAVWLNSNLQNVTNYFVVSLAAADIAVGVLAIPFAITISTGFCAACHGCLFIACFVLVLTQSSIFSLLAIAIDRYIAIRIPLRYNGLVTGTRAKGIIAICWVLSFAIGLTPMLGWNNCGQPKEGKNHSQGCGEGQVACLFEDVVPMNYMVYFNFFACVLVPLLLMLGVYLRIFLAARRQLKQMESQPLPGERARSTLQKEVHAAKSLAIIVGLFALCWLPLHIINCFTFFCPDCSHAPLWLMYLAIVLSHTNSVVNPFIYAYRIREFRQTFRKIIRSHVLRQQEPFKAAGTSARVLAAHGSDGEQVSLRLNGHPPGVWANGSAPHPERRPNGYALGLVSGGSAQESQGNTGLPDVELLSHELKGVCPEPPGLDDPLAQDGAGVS
# Experiment Notes: Displacement of [3H]NECA from human adenosine A2A receptor expressed in CHO cells at 10 uM
# Assay type: cell-based
Assign class by inhibition: not lower than 20% means T; lower than 20% means F.

Example results:
Smiles Code: COc1ccc(-c2nc(N(C(=O)c3ccccc3)C(=O)c3ccccc3)n(-c3ccccc3)n2)cc1
Class Assignment: F

Smiles Code: CCOC(=O)N1Cc2nc(-c3ccccc3)nn2-c2cc(C)ccc21
Class Assignment: F

Smiles Code: CCC(=O)N1Cc2nc(-c3ccccc3)nn2-c2cc(C)ccc21
Class Assignment: T

Smiles Code: COc1ccc(-c2nc3cnc4ccc(C)cc4n3n2)cc1
Class Assignment: T

Smiles Code: COC(=O)N1Cc2nc(-c3ccccc3)nn2-c2ccccc21
Class Assignment: T

Smiles Code: COc1ccc(-c2nc3n(n2)-c2cc(C)ccc2N(C(=O)Cc2ccccc2)C3)cc1
Class Assignment: F

Smiles Code: CCC(=O)N1Cc2nc(-c3ccccc3)nn2-c2cc(Cl)ccc21
Class Assignment: T

Smiles Code: C#CCOC(=O)Nc1ccc(C)cc1-n1cnc(-c2ccc(OC)cc2)n1
Class Assignment: F

Okay, next one:
-- ask Is inhibition at least 20%? Consider `CCC(=O)N1Cc2nc(-c3ccccc3)nn2-c2ccccc21`
-- reply T
